Every entry's value here was drawn from patent US20210380675A1.

system: T1, cynomolgus IL-36α, truncated (cynomolgus macaque (Macaca fascicularis), UniProt Q9UHA7 14-158 (human entry), limits assumed)
T1 chain: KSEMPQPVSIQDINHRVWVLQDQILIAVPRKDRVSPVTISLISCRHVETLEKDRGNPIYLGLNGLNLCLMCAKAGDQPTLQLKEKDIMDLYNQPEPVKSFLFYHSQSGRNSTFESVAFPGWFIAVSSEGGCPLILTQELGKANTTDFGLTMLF
experiment_summary: cell-based or functional assay
Here the recorded IC50 of IL-8 secretion, HaCaT, 10 nM cynomolgus IL-36α, FIG. 2B is given for each entry.
Output spec: scalar in nM, unitless text.

Answered cases to consult:
144L249B (antibody, V domains shown, Mouse monoclonal from hybridoma; mouse IgG heavy and lambda light chain; also called mouse antibody 144L249B) VH: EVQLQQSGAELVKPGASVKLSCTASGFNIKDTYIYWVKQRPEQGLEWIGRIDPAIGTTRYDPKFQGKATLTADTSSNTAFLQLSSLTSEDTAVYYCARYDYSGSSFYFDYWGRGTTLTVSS VL: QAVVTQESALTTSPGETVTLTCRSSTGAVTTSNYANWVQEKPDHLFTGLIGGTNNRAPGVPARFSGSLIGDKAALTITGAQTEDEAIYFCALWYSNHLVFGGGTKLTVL: 7.94
144L124B (antibody, V domains shown, Mouse monoclonal from hybridoma; mouse IgG heavy and lambda light chain; Same VH and VL as 144L180A) VH: EVQLQQSGAELVKPGASVKLSCTASGFNIKDTYIYWVKQRPEQGLEWIGRIDPANGYTRYDPKFQGKATMTADTSSNTAYLQLSSLTSEDTAVYYCARYEYYDSSFYFDYWGQGTTLTVSS VL: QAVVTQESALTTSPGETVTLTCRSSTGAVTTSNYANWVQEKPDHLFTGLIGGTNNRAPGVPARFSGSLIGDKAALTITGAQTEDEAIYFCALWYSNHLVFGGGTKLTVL: 14.2
144L180A (antibody, V domains shown) VH: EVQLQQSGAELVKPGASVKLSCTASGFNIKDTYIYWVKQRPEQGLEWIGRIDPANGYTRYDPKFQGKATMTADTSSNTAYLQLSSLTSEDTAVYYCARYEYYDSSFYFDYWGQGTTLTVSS VL: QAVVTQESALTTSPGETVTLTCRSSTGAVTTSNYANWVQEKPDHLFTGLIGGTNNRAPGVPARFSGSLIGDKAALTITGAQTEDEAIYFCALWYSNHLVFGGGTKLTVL: 15.7

Form field IC50 of IL-8 secretion, HaCaT, 10 nM cynomolgus IL-36α, FIG. 2B, entry chimeric m/h 144D464A (antibody, human IgG1, lambda, V domains shown, Mouse VH/VL joined to human IgG1 constant and human Ig lambda (IGLC2) constant; also called chimeric mouse/human (m/h) 144D464A antibody) VH: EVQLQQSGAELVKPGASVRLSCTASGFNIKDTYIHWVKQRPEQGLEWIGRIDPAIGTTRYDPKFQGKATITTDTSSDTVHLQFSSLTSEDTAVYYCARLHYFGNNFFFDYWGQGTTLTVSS VL: QAVVTQESALTTSPGEAVTLTCRSSSGAVTTSNYANWVQEKPDHLFAGLIGGTNDRAPGVPARFSGSLIGDKAALTITGAQTEDEAIYFCALWFSNHWVFGGGTKLTVLG : 4.91

Quick note, IC50 of IL-8 secretion, HaCaT, 10 nM cynomolgus IL-36α, FIG. 2B for 144L472A (antibody, V domains shown, Mouse monoclonal from hybridoma; mouse IgG heavy and lambda light chain) VH: EVQLQQSGAELVKPGASVKLSCTVSGFNIKDTYMYWVKQRPEQGLEWIGRIDPANGYAKYDPKFQGKATLTADTSSNTAYLQLSSLTSEDTAVYFCARFHWYDSAFYFDFWGQGTTLTVSS VL: QAVVTQESALTTSPGETVTLTCRSSSGAVTTSNYANWVQEKPDHLFTGLIGGTNNRAPGVPARFSGSLIGDKAALTITGAQTEDEAIYFCGLWYSNHWVFGGGTKLTVL landed at 63.2

Documented IC50 of IL-8 secretion, HaCaT, 10 nM cynomolgus IL-36α, FIG. 2B of 144L133B (antibody, V domains shown) VH: EVQLQQSGAELVKPGASVKLSCTASGFNIKDTYMYWVKQRPEQGLEWIGRIDPAIGTTRYDPKFQGKATLTADTSSNTAFLQLSSLTSEDTAVYYCARYDYSGSSFYFDYWGRGTTLTVSS VL: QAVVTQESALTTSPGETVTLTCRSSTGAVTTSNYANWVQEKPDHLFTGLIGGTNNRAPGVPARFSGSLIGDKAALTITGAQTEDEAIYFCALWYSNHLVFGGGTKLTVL : 9.61
